biological target: KRas Q61H mutant (Homo sapiens, UniProt P01116, Q61H); construct: made in house; experiment: Ras GTP binding domain inhibition assay (labeled-GTP competition, cell-free); details: at 20 μM, without SOS; read-out: KRas Q61H mutant: % inh.
outcomeMeasure: inhibition at 20 µM

# compound, outcomeMeasure, reported
rows = [
    ("CO[C@H]1C[C@H](CNc2nc(-c3nccn3C)nc3sc(-c4ccn(C(C)C)n4)c(C)c23)C1 [Compound 48]", "inhibition at 20 µM", "51 to 75%"),
    ("Cc1c(-c2ccn(C(C)C)n2)sc2nc(-c3nccn3C)nc(NC[C@H]3CCC(=O)N3)c12 [Compound 52]", "inhibition at 20 µM", "51 to 75%"),
    ("COCCn1ccnc1-c1nc(N[C@@H]2CC[C@H](OC)C2)c2ccsc2n1 (racemic) [Compound 8]", "inhibition at 20 µM", "76 to 100%"),
    ("COc1ccn2c(-c3nc(O)c4scc(-c5ccccn5)c4n3)ncc2c1 [Compound 85]", "inhibition at 20 µM", "51 to 75%"),
]

###

target: UniProt P63000; experiment: Ras GTP binding domain inhibition assay (labeled-GTP competition, cell-free); design: made in house; conditions: without SOS, read-out: Rac-1: % inh.
The reader will find reported inhibition at 20 µM values listed item by item below.

# compound, inhibition at 20 µM
measured = [
    ("CO[C@H]1CC[C@@H](Nc2nc(-c3nccn3C)nc3sc(-c4ccn(C(C)C)n4)c(C(F)(F)F)c23)C1 (racemic)", "1 to 25%"),
    ("Cc1c(-c2ccn(C(C)C)n2)sc2nc(-c3nccn3C)nc(NC3CCOC3)c12 (racemic)", "76 to 100%"),
    ("NC(=O)c1nc(O)c2scc(-c3ccccn3)c2n1", "26 to 50%"),
    ("COC1CCCN(c2nc(-c3nccn3C)nc3sc(-c4ccn(C(C)C)n4)c(C)c23)C1 (racemic)", "51 to 75%"),
    ("COCCn1ccnc1-c1nc(N[C@H]2C[C@@H](OC)C2)c2ccsc2n1", "76 to 100%"),
    ("COCCn1cnc(-c2nc(O)c3scc(-c4ccccn4)c3n2)c1", "51 to 75%"),
    ("Oc1nc(-c2nccn2CCOCC(F)(F)F)nc2c(-c3ccccn3)csc12", "76 to 100%"),
    ("COC1CCCN(c2nc(-c3nccn3C)nc3sc(-c4ccn(C(C)C)n4)c(-c4ccccc4)c23)C1 (racemic)", "1 to 25%"),
    ("CO[C@H]1CC[C@@H](Nc2nc(-c3nccn3C)nc3sc(-c4ccn(C(C)C)n4)c(C)c23)CC1", "0%"),
    ("COc1cc(Nc2nc(-c3nccn3C)nc3sc(-c4ccn(C(C)C)n4)c(C)c23)ccn1", "1 to 25%"),
    ("CO[C@H]1CC(Nc2nc(-c3nccn3C)nc3sc(-c4ccn(C(C)C)n4)c(C)c23)C[C@@H]1OC (racemic)", "76 to 100%"),
    ("Oc1nc(-c2nccn2CCOCc2ccccc2)nc2c(-c3ccccn3)csc12", "76 to 100%"),
    ("CO[C@H]1CN(c2nc(-c3nccn3C)nc3sc(-c4ccn(C(C)C)n4)c(C)c23)C[C@H]1OC", "51 to 75%"),
    ("COc1cccc(Nc2nc(-c3nccn3C)nc3sc(-c4ccn(C(C)C)n4)c(C)c23)n1.Cl [Compound 65, hydrochloride salt]", "26 to 50%"),
    ("COC1CCCN(c2nc(-c3nccn3C)nc3sc(-c4ccn(C(C)C)n4)c(C(F)(F)F)c23)C1 (racemic)", "1 to 25%"),
    ("O=C(Nc1ccccc1)c1nc(O)c2scc(-c3ccccn3)c2n1", "1 to 25%"),
]

###

biological target: KRas G12C mutant (Homo sapiens, UniProt P01116, G12C); construct: made in house; assay: Ras GTP binding domain inhibition assay (labeled-GTP competition, cell-free); conditions: with SOS, read-out: KRas G12C mutant + SOS: % inh.
The reader will find reported inhibition at 20 µM values listed item by item below.

# recordSmiles, testedOn, inhibition at 20 µM
data = [
    ("Oc1nc(-c2ccc3[nH]ncc3n2)nc2c(-c3ccccn3)csc12", "KRas G12C mutant (Homo sapiens, UniProt P01116, G12C)", "1 to 25%"),
    ("COCCNc1nc(-c2nccn2C)nc2sc(-c3ccn(C(C)C)n3)c(C)c12", "KRas G12C mutant (Homo sapiens, UniProt P01116, G12C)", "76 to 100%"),
    ("COCCn1c(-c2nc(O)c3scc(-c4ccccn4)c3n2)nc2ccccc21", "KRas G12C mutant (Homo sapiens, UniProt P01116, G12C)", "1 to 25%"),
    ("COc1ccnc(Nc2nc(-c3nccn3C)nc3sc(-c4ccn(C(C)C)n4)c(C)c23)n1", "KRas G12C mutant (Homo sapiens, UniProt P01116, G12C)", "51 to 75%"),
]

###

biological target: KRas wild type (Homo sapiens, UniProt P01116); assay: Ras GTP binding domain inhibition assay (labeled-GTP competition, cell-free); parameters: made in house; details: with SOS, read-out: KRas wild type + SOS: % inh.
outcomeMeasure: inhibition at 20 µM

# molecule, reported
rows = [
    ("CO[C@H]1C[C@@H](Nc2nc(-c3nccn3C)nc3sc(-c4cn(C)cn4)c(-c4ccccc4)c23)C1", "76 to 100%"),
    ("COCCCNc1nc(-c2nccn2C)nc2sc(-c3ccn(C(C)C)n3)c(C)c12", "76 to 100%"),
    ("COCCn1ccnc1-c1nc(N[C@@H]2CC[C@H](OC)C2)c2c(-c3ccccc3)c(-c3ccn(C)n3)sc2n1 (racemic)", "76 to 100%"),
    ("COCC1CCN(c2nc(-c3nccn3C)nc3sc(-c4ccn(C(C)C)n4)c(-c4ccccc4)c23)C1 (racemic)", "51 to 75%"),
]

###

molecular target: Rho-A (Homo sapiens); assay: Scintillation Proximity Assay (SPA) GTP affinity; settings: read-out: SPA GTP affinity for binding domain

# recordSmiles, testedOn, Kd [µM]
records = [
    ("Nc1nc2c(ncn2[C@@H]2O[C@H](COP(=O)(O)OP(=O)(O)OP(=O)(O)O)[C@@H](O)[C@H]2O)c(=O)[nH]1", "Rho-A (Homo sapiens)", 0.129),
]

###

target: K-Ras (G12C) (Homo sapiens, UniProt P01116, G12C); experiment: Scintillation Proximity Assay (SPA) GTP affinity; details: read-out: SPA GTP affinity for binding domain
pKd: −log10 of the molar value.
outcomeMeasure: pKd

# compound, reported
measured = [
    ("Nc1nc2c(ncn2[C@@H]2O[C@H](COP(=O)(O)OP(=O)(O)OP(=O)(O)O)[C@@H](O)[C@H]2O)c(=O)[nH]1 [GTP]", 6.59),
]

###

The reader will find reported inhibition at 20 µM values listed item by item below.
biological target: KRas G12C mutant (Homo sapiens, UniProt P01116, G12C); construct: made in house; test: Ras GTP binding domain inhibition assay (labeled-GTP competition, cell-free); conditions: without SOS, read-out: KRas G12C mutant: % inh.
outcomeMeasure: inhibition at 20 µM

# compound, reported
rows = [
    ("COc1ccc2cnc(-c3nc(O)c4scc(-c5ccccn5)c4n3)n2c1 [Compound 86]", "26 to 50%"),
    ("COC[C@@H]1CC[C@@H]1CNc1nc(-c2nccn2C)nc2sc(-c3ccn(C(C)C)n3)c(C)c12 (racemic) [Compound 63]", "26 to 50%"),
    ("CO[C@H]1CC[C@@H](Nc2nc(-c3nccn3C)nc3sccc23)C1 (racemic) [Compound 10]", "76 to 100%"),
    ("COCCn1ccnc1-c1nc(N[C@H]2C[C@@H](OC)C2)c2ccsc2n1 [Compound 9]", "76 to 100%"),
    ("COCCn1ccnc1-c1nc(N[C@@H]2CC[C@H](OC)C2)c2c(-c3ccccc3)c(-c3ccn(C)n3)sc2n1 (racemic) [Compound 6]", "76 to 100%"),
    ("COCCCn1ccnc1-c1nc(O)c2scc(-c3ccccn3)c2n1 [Compound 79]", "51 to 75%"),
    ("Cc1c(-c2ccn(C(C)C)n2)sc2nc(-c3nccn3C)nc(NCCc3nnn[nH]3)c12 [Compound 46]", "51 to 75%"),
    ("Oc1nc(-c2cccnc2)nc2c(-c3ccccn3)csc12 [Compound 89]", "0%"),
    ("COC1CCCN(c2nc(-c3nccn3C)nc3sc(-c4ccn(C(C)C)n4)c(C(F)(F)F)c23)C1 (racemic) [Compound 75]", "26 to 50%"),
    ("CO[C@H]1CC[C@@H](Nc2nc(-c3ccccn3)nc3sc(-c4ccn(C(C)C)n4)c(C)c23)C1 (racemic) [Compound 69]", "51 to 75%"),
    ("Cc1c(-c2ccn(C(C)C)n2)sc2nc(-c3nccn3C)nc(NC3CCOC3)c12 (racemic) [Compound 37]", "76 to 100%"),
    ("CO[C@H]1CC[C@@H](Nc2nc(C(=O)Nc3ccccc3)nc3sccc23)C1 (racemic) [Compound 15]", "1 to 25%"),
    ("Oc1nc(-c2nccn2CCOCC(F)(F)F)nc2c(-c3ccccn3)csc12 [Compound 81]", "51 to 75%"),
    ("CO[C@H]1CC[C@@H](Nc2nc(C(N)=O)nc3sccc23)C1 (racemic) [Compound 11]", "1 to 25%"),
    ("COc1ccnc(Nc2nc(-c3nccn3C)nc3sc(-c4ccn(C(C)C)n4)c(C)c23)n1 [Compound 68]", "76 to 100%"),
    ("CC(C)OCCn1ccnc1-c1nc(O)c2scc(-c3ccccn3)c2n1 [Compound 82]", "51 to 75%"),
    ("COC1CCN(c2nc(-c3nccn3C)nc3sc(-c4ccn(C(C)C)n4)c(C)c23)C1 (racemic) [Compound 34]", "76 to 100%"),
    ("O=C(c1nc(O)c2scc(-c3ccccn3)c2n1)N1CCOCC1 [Compound 22]", "1 to 25%"),
    ("CO[C@H]1CC[C@@H](Nc2nc(-c3nccn3C)nc3sc(-c4ccn(C(C)C)n4)c(C)c23)C1 [Compound 32]", "51 to 75%"),
    ("CO[C@H]1CC[C@@H](Nc2nc(C(=O)N3CCOCC3)nc3sccc23)C1 (racemic) [Compound 12]", "1 to 25%"),
    ("COCC1CCN(c2nc(-c3nccn3C)nc3sc(-c4ccn(C(C)C)n4)c(C(F)(F)F)c23)C1 (racemic) [Compound 74]", "1 to 25%"),
    ("Cc1c(-c2ccn(C(C)C)n2)sc2nc(-c3nccn3C)nc(NCCC3CCC(=O)N3)c12 (racemic) [Compound 56]", "76 to 100%"),
    ("Oc1nc(-c2ccncn2)nc2c(-c3ccccn3)csc12 [Compound 88]", "1 to 25%"),
    ("CC(C)NC(=O)c1nc(O)c2scc(-c3ccccn3)c2n1 [Compound 20]", "51 to 75%"),
    ("COCCNC(=O)c1nc(O)c2scc(-c3ccccn3)c2n1 [Compound 21]", "26 to 50%"),
    ("CO[C@@H]1CCCN(c2nc(-c3nccn3C)nc3sc(-c4ccn(C(C)C)n4)c(C)c23)C1 [Compound 50]", "26 to 50%"),
    ("COc1cccn2c(-c3nc(O)c4scc(-c5ccccn5)c4n3)ncc12 [Compound 84]", "26 to 50%"),
    ("CO[C@H]1CC[C@@H](Nc2nc(-c3nccn3C)nc3sc(-c4ccn(C(C)C)n4)c(-c4ccccc4)c23)C1 [Compound 5]", "51 to 75%"),
    ("Cn1nccc1-c1nc(O)c2scc(-c3ccccn3)c2n1 [Compound 91]", "0%"),
    ("COCCn1ccnc1-c1nc(O)c2scc(-c3ccncc3)c2n1 [Compound 94]", "51 to 75%"),
    ("COCCn1cnc(-c2nc(O)c3scc(-c4ccccn4)c3n2)c1 [Compound 78]", "51 to 75%"),
    ("CO[C@@H]1CC[C@H](Nc2nc(-c3nccn3C)nc3sc(-c4ccn(C(C)C)n4)c(-c4ccccc4)c23)C1 [Example 4]", "51 to 75%"),
    ("COCCn1ccnc1-c1nc(N[C@@H]2CC[C@H](OC)C2)c2ccsc2n1 (racemic) [Compound 8]", "76 to 100%"),
]
